All figures here come from patent US10954214B2.

Consider molecules characterized by their IC50 with full-length MALT1 protein (Strep-MALT1(1-824)-His) (Homo sapiens (Human)).
Sequence (Q9UDY8 whole entry): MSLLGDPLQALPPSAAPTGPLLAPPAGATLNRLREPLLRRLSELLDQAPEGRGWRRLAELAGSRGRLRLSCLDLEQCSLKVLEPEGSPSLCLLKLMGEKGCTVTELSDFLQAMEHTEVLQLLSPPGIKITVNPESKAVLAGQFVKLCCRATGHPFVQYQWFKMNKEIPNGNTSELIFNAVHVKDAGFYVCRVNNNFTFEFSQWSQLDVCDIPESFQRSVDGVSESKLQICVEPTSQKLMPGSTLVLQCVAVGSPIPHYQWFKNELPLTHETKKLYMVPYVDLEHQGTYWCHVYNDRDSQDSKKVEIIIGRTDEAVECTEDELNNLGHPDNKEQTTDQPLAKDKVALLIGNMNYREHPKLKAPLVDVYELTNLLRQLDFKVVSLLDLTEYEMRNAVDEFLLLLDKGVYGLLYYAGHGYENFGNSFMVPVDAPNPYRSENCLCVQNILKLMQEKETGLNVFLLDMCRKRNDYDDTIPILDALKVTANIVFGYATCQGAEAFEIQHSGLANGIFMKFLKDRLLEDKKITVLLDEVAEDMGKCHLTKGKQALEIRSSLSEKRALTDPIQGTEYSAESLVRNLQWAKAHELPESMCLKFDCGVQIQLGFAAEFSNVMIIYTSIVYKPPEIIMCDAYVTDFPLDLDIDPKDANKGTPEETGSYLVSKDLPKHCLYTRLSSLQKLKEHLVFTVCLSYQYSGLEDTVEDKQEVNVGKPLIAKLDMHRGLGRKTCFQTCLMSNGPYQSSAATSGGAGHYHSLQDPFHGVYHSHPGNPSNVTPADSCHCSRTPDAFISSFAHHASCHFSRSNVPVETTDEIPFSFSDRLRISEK

# molecule, IC50, nM
data = [
    ("Cc1nc(-n2nccn2)c(Cl)cc1NC(=O)c1cnn(-c2cc(=O)[nH]c3ccccc23)c1C(F)(F)F [Cpd 358]", 19),
    ("N#Cc1cc(NC(=O)c2cnn(-c3ncnc4ccsc34)c2C(F)(F)F)cnc1-n1nccn1 [Cpd 315]", 33),
    ("NC(=O)c1ncc(-n2ncc(C(=O)Nc3cnc(-n4nccn4)c(Cl)c3)c2C(F)(F)F)c2ccccc12 [Cpd 387]", 30),
    ("Cc1nc(-n2nccn2)c(C#N)cc1NC(=O)c1cnn(-c2cccc3scnc23)c1C(F)(F)F [Cpd 297]", 251),
    ("Cn1ncc2c(-n3ncc(C(=O)Nc4cnc(-n5nccn5)c(C#N)c4)c3C(F)(F)F)cccc21 [Cpd 239]", 661),
    ("O=C(Nc1cnc(-n2nc3ccncc3n2)c(Cl)c1)c1cnn(-c2cccc3ncccc23)c1C(F)(F)F [Cpd 162]", 363),
    ("CS(=O)(=O)c1cc(NC(=O)c2cnn(-c3cccc4ncccc34)c2C(F)(F)F)ccc1-n1ccnn1 [Cpd 213]", 10000),
    ("O=C(Nc1cnc(-n2nccn2)c(C(F)(F)F)c1)c1cnn(-c2cccc3ncccc23)c1C(F)(F)F [Cpd 146]", 32),
]

====

tested on: TMD8 cells; assay: 4-day proliferation assay, TMD8; assay type: cell-based; details: Homo sapiens, 96 h, 4 days incubation, CellTiterGLO, read-out: Anti-proliferation: TMD-8 IC50
readout.label: IC50 (µM)

# compound, unit.of.measure, value.comparator, experimental.result
records = [
    ("Cc1cc(-n2nccn2)c(C#N)cc1NC(=O)c1cnn(-c2cccc3c(=O)[nH]ccc23)c1C(F)(F)F [Cpd 446]", "µM", ">", 20),
    ("N#Cc1cc(NC(=O)c2cnn(-c3cncc4ccccc34)c2C(F)(F)F)ccc1-n1nccn1 [Cpd 59]", "µM", "=", 6.76),
    ("Nc1cnn(-c2ncc(NC(=O)c3cnn(-c4cccc5c(=O)[nH]ccc45)c3C(F)(F)F)cc2Cl)n1 [Cpd 134]", "µM", "=", 20),
    ("Cc1nc(-n2nccn2)c(C#N)cc1NC(=O)c1cnn(-c2cncc3c(F)cccc23)c1C(F)(F)F [Cpd 124]", "µM", "=", 0.977),
]

====

system: TMD8 cells; experiment: 4-day proliferation assay, TMD8; type: cell-based; settings: Homo sapiens, 96 h, 4 days incubation, CellTiterGLO, read-out: Anti-proliferation: TMD-8 IC50
pIC50: −log10 of the molar value.
The following compounds are shown together with reported pIC50 values.
readout.label: pIC50

# compound, test.target, readout.label, value.comparator, experimental.result
data = [
    ("O=C(Nc1cnc(-n2nccn2)c(Cl)c1)c1cnn(-c2cccc3c(=O)[nH]ccc23)c1C(F)(F)F [Cpd 116]", "TMD8 cells", "pIC50", "=", 5.16),
    ("Cn1ccc(-c2ncc(NC(=O)c3cnn(-c4cncc5ccccc45)c3C(F)(F)F)cc2Cl)n1 [Cpd 52]", "TMD8 cells", "pIC50", "=", 5.30),
    ("O=C(Nc1cnc(-n2nccn2)c(Cl)c1)c1cnn(-c2cncc3c(F)cccc23)c1C(F)(F)F [Cpd 117]", "TMD8 cells", "pIC50", "=", 5.80),
    ("N#Cc1cc(NC(=O)c2cnn(-c3cccc4ccncc34)c2C(F)(F)F)cnc1-n1nccn1 [Cpd 19]", "TMD8 cells", "pIC50", "<", 4.70),
    ("O=C(Nc1ccc(-n2cc(CO)cn2)c(Cl)c1)c1cnn(-c2cccc3ncccc23)c1C(F)(F)F [Cpd 175]", "TMD8 cells", "pIC50", "=", 5.91),
    ("N#Cc1ncc(NC(=O)c2cnn(-c3cncc4ccccc34)c2C(F)(F)F)cc1F [Cpd 41]", "TMD8 cells", "pIC50", "<", 4.70),
    ("[2H]c1ccc2c(-n3ncc(C(=O)Nc4cnc(-n5nccn5)c(C#N)c4)c3C(F)(F)F)cccc2n1 [Cpd 130]", "TMD8 cells", "pIC50", "=", 5.46),
    ("Cc1nc(-n2nccn2)c(Cl)cc1NC(=O)c1cnn(-c2cccc3nnsc23)c1C(F)(F)F [Cpd 121]", "TMD8 cells", "pIC50", "=", 5.72),
    ("COc1ncc(NC(=O)c2cnn(-c3cncc4ccccc34)c2C(F)(F)F)cc1Cl [Cpd 23]", "TMD8 cells", "pIC50", "=", 5.08),
    ("N#Cc1cc(NC(=O)c2cnn(-c3nccn4nccc34)c2C(F)(F)F)cnc1-n1nccn1 [Cpd 425]", "TMD8 cells", "pIC50", "=", 4.96),
    ("Nc1ncc(-n2ncc(C(=O)Nc3cnc(-n4nccn4)c(Cl)c3)c2C(F)(F)F)c2cccc(F)c12 [Cpd 110]", "TMD8 cells", "pIC50", "=", 5.84),
    ("N#Cc1cncc(NC(=O)c2cnn(-c3cncc4ccccc34)c2C(F)(F)F)c1 [Cpd 82]", "TMD8 cells", "pIC50", "=", 5.20),
    ("O=C(Nc1ccc(-n2ccnn2)c(Cl)c1)c1cnn(-c2cncc3ccccc23)c1C(F)(F)F [compound 43]", "TMD8 cells", "pIC50", "=", 5.33),
    ("O=C(Nc1cnc(-n2nccn2)c(Cl)c1)c1cnn(-c2cccc3ccccc23)c1C(F)(F)F [Cpd 2]", "TMD8 cells", "pIC50", "=", 4.86),
    ("O=C(Nc1cnc(-n2nccn2)c(Cl)c1)c1cnn(-c2c[nH]c(=O)c3c(F)cccc23)c1C(F)(F)F [Cpd 184]", "TMD8 cells", "pIC50", "=", 5.22),
    ("Cc1ccc2cncc(-n3ncc(C(=O)Nc4cnc(-n5nccn5)c(Cl)c4)c3C(F)(F)F)c2c1 [Cpd 36]", "TMD8 cells", "pIC50", "=", 5.10),
    ("O=C(Nc1cnc(-n2nccn2)c(Cl)c1)c1cnn(-c2cccc3nnsc23)c1C(F)(F)F [Cpd 120]", "TMD8 cells", "pIC50", "=", 5.71),
    ("N#Cc1cc(NC(=O)c2cnn(-c3ccc(F)c4ccccc34)c2C(F)(F)F)cnc1-n1nccn1 [Cpd 312]", "TMD8 cells", "pIC50", "=", 6.30),
    ("N#Cc1ncc(NC(=O)c2cnn(-c3cncc4ccccc34)c2C(F)(F)F)cc1C(F)(F)F [Cpd 49]", "TMD8 cells", "pIC50", "=", 5.30),
    ("O=C(Nc1cnc(-n2nccn2)c(Cl)c1)c1cnn(-c2cc(=O)[nH]c3ccccc23)c1C(F)(F)F [Cpd 418]", "TMD8 cells", "pIC50", "=", 5.44),
    ("O=C(Nc1cnc(-n2nccn2)c(Cl)c1)c1cnn(-c2ccc(F)c3ncccc23)c1C(F)(F)F [Cpd 40]", "TMD8 cells", "pIC50", "=", 5.21),
    ("O=C(Nc1ccc(-n2nccn2)c(Cl)c1)c1cnn(-c2cccc3ccncc23)c1C(F)(F)F [Cpd 11]", "TMD8 cells", "pIC50", "=", 4.90),
    ("N#Cc1cc(NC(=O)c2cnn(-c3cncc4ccccc34)c2C(F)(F)F)cnc1-n1nccn1 [Cpd 47]", "TMD8 cells", "pIC50", "=", 5.09),
]
